From various publications: IC50 for Catechol O-methyltransferase (Homo sapiens, UniProt P21964).
Lab note: anything with IC50 below 40 nM is marked Fulfilled; values at 40 nM or higher are marked Not fulfilled.

# smilesData, measuredOn, answerLabel
records = [
    ("N#C/C(C(=O)N1CCC1)=C(/O)c1cc(O)c(O)c([N+](=O)[O-])c1", "Catechol O-methyltransferase (Homo sapiens, UniProt P21964)", "Not fulfilled"),
    ("CC(C)Cc1ccc2c([N+](=O)[O-])c(O)c(O)cc2c1", "Catechol O-methyltransferase (Homo sapiens, UniProt P21964)", "Not fulfilled"),
    ("O=c1oc2c([N+](=O)[O-])c(O)c(O)cc2cc1-c1ccccc1", "Catechol O-methyltransferase (Homo sapiens, UniProt P21964)", "Fulfilled"),
    ("O=C(O)c1cc2cc(O)c(O)c([N+](=O)[O-])c2oc1=O", "Catechol O-methyltransferase (Homo sapiens, UniProt P21964)", "Fulfilled"),
    ("N#C/C(C(=O)Nc1nccs1)=C(/O)c1cc(O)c(O)c([N+](=O)[O-])c1", "Catechol O-methyltransferase (Homo sapiens, UniProt P21964)", "Not fulfilled"),
    ("CCN(CC)C(=O)c1cc2cc(O)c(O)c([N+](=O)[O-])c2cc1C(=O)N(CC)CC", "Catechol O-methyltransferase (Homo sapiens, UniProt P21964)", "Not fulfilled"),
    ("O=Cc1cc(O)c(O)c(C=O)c1CCC(=O)O", "Catechol O-methyltransferase (Homo sapiens, UniProt P21964)", "Not fulfilled"),
]
